Where do these numbers come from? They come from paper PMC4475445.

assay.target: Btk (Homo sapiens, UniProt Q06187)
Sequence (Q06187 whole entry): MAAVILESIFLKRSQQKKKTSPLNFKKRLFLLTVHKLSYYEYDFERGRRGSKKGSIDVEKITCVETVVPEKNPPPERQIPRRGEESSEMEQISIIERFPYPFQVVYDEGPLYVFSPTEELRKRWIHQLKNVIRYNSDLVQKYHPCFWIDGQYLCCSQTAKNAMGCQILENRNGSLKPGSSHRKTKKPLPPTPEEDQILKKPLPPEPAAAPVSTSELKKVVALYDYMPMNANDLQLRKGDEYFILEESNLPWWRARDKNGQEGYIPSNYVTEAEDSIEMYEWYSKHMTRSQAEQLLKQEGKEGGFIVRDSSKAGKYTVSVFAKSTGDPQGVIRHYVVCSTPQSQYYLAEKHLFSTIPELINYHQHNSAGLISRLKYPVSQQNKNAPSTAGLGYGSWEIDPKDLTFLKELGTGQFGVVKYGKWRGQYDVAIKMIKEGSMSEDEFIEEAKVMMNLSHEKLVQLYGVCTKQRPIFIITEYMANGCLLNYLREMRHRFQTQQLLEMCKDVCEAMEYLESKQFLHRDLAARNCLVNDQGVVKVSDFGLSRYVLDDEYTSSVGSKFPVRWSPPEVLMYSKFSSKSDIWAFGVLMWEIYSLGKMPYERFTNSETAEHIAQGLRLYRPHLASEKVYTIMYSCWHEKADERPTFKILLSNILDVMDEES
measurement.type: pIC50
Note on units: pIC50 is unitless, being -log10 of a concentration expressed in mol/L.

# query: pIC50 | item C=CC(=O)Nc1cccc(Nc2nc(Nc3ccc(OCCOC)c(F)c3)ncc2F)c1 | system: Btk (Homo sapiens, UniProt Q06187) 7.90

* * *

Target sequence: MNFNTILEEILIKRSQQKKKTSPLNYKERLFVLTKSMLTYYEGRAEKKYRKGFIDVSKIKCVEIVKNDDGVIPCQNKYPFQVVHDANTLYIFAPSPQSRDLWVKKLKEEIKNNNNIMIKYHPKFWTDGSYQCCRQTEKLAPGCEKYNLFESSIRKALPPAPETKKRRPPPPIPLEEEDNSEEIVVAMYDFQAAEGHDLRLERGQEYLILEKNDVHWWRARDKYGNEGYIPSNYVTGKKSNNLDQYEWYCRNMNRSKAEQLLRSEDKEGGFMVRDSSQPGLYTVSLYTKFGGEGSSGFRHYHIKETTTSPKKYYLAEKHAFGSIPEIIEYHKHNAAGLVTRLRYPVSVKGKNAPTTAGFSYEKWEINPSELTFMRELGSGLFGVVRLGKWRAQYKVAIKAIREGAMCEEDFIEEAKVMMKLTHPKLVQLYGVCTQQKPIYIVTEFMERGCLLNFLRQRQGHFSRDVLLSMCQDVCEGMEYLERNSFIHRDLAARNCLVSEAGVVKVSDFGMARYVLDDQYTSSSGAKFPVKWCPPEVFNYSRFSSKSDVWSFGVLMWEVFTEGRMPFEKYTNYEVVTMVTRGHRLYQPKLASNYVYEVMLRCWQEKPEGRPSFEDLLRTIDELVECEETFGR
measurement.type: pIC50
Note on units: pIC50 is unitless, being -log10 of a concentration expressed in mol/L.

Given C=CC(=O)Nc1cccc(Nc2nc(Nc3ccc(OCCOC)c(F)c3)ncc2F)c1 , state its recorded pIC50. 7.66
